# System: 282377-053-R-J1-PDC complex spheroid viability
# protocol: Anticancer human tumor 282377-053-R-J1-PDC patient-derived colon adenocarcinoma cell line growth inhibition [POLQ]
# assay.setup: second compound 10 µM; first compound 0.0316 µM; stronger effect = lower value
Can you tell me viability, T/C for the items I'm about to list?

Before answering, review these 5 worked examples.
{"molecule": "C=CC(=O)N1CCN(c2nc(=O)n(-c3c(C)ccnc3C(C)C)c3nc(-c4c(O)cccc4F)c(F)cc23)C(C)C1 (configuration not stated) + Cc1cccc(N(C)C(=O)C2C(O)CCN2c2nc(C)cc(C(F)(F)F)c2C#N)c1", "viability, T/C": "76.7%"}
{"molecule": "CC1COCCN1c1cc(-c2ccnn2C)c2ccnc(-c3ccn[nH]3)c2n1 (configuration not stated) + Cc1cccc(N(C)C(=O)C2C(O)CCN2c2nc(C)cc(C(F)(F)F)c2C#N)c1", "viability, T/C": "78.8%"}
{"molecule": "C#Cc1c(F)ccc2cc(O)cc(-c3ncc4c(N5CC6CCC(C5)N6)nc(OCC56CCCN5CC(F)C6)nc4c3F)c12 (configuration not stated) + Nc1ccc(C#CCN(C(=O)Cc2ncc(C(F)(F)F)cc2C(F)(F)F)c2ccc(F)cc2)nn1", "viability, T/C": "117%"}
{"molecule": "C=CCn1c(=O)c2cnc(Nc3ccc(N4CCN(C)CC4)cc3)nc2n1-c1cccc(C(C)(C)O)n1 + COC1C(OC(N)=O)C(O)C(Oc2ccc3c(O)c(NC(=O)c4ccc(O)c(CC=C(C)C)c4)c(=O)oc3c2C)OC1(C)C", "viability, T/C": "87.2%"}
{"molecule": "COc1cc(C2c3cc4c(cc3C(OC3OC5COC(C)OC5C(O)C3O)C3COC(=O)C23)OCO4)cc(OC)c1O (configuration not stated) + COC1C(OC(N)=O)C(O)C(Oc2ccc3c(O)c(NC(=O)c4ccc(O)c(CC=C(C)C)c4)c(=O)oc3c2C)OC1(C)C", "viability, T/C": "87.4%"}

// for each molecule below, give its viability, T/C
1. O=C(c1cc(Cc2n[nH]c(=O)c3ccccc23)ccc1F)N1CCN(C(=O)C2CC2)CC1 + Nc1ccc(C#CCN(C(=O)Cc2ncc(C(F)(F)F)cc2C(F)(F)F)c2ccc(F)cc2)nn1
2. CCc1cc2c(N3CCc4c(cc(Cn5ccnc5)cc4-c4cn(C)nc4C(F)(F)F)C3=O)cc(C)nc2c(OC)n1 + COC1C(OC(N)=O)C(O)C(Oc2ccc3c(O)c(NC(=O)c4ccc(O)c(CC=C(C)C)c4)c(=O)oc3c2C)OC1(C)C

[A]
1. 122%
2. 111%

----------
# Tested on: 282377-053-R-J1-PDC complex spheroid viability
# protocol: Anticancer human tumor 282377-053-R-J1-PDC cell line growth inhibition [POLQ];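 note: spheroids exposed to compounds for seven days; 100% = DMSO vehicle control viability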
# assay.setup: second compound 0.0316 µM; first compound 0.316 µM; stronger effect = lower value
# Protocol: Multicellular complex tumor spheroid response to Polymerase (POL) inhibitors (novobiocin, ART-558, RP6685) in combination with a variety of drugs and investigational agents in selected tumor cell lines The POL inhibitors (novobiocin, ART-558, and RP6685) were evaluated both individually and in combination with standard of care and investigational anticancer small molecules within a complex spheroid model of solid tumors. . […]
Can you tell me viability, T/C for the items I'm about to list?
One number for each entry, in %.

Before answering, review these 2 worked examples.
{"compound": "COc1cccc2c1C(=O)c1c(O)c3c(c(O)c1C2=O)CC(O)(C(=O)CO)CC3OC1CC(N)C(O)C(C)O1 (stereo not drawn) + Nc1ccc(C#CCN(C(=O)Cc2ncc(C(F)(F)F)cc2C(F)(F)F)c2ccc(F)cc2)nn1", "viability, T/C / %": 123}
{"compound": "CCc1c2c(nc3ccc(O)cc13)-c1cc3c(c(=O)n1C2)COC(=O)[C@]3(O)CC + Cc1cccc(N(C)C(=O)C2C(O)CCN2c2nc(C)cc(C(F)(F)F)c2C#N)c1", "viability, T/C / %": 40.1}

[Q] Tell me the measured viability, T/C of O=C(c1cc(Cc2n[nH]c(=O)c3ccccc23)ccc1F)N1CCN(C(=O)C2CC2)CC1 + Nc1ccc(C#CCN(C(=O)Cc2ncc(C(F)(F)F)cc2C(F)(F)F)c2ccc(F)cc2)nn1 , please.
[A] 101
